Biological target: hMAO-B (Homo sapiens)
Construct: purchased Sigma-Aldrich (Steinheim, Germany)
Sequence (P27338 whole entry): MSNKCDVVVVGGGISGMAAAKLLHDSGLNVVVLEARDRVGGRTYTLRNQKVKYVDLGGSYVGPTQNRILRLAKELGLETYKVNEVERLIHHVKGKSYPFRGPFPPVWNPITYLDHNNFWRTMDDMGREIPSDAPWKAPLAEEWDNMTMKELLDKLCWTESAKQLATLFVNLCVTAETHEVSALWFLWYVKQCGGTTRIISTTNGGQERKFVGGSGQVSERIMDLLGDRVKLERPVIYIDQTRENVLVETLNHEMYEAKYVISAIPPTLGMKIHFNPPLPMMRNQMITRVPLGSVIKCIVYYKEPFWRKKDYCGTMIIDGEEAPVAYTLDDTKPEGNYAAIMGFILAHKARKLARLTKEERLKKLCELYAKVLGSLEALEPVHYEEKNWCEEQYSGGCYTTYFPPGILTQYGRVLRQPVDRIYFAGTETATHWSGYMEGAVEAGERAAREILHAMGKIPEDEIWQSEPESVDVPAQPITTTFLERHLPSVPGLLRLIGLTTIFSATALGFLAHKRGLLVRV
Test: MAO-B inhibition assay, fluorometric (Amplex Red / horseradish peroxidase-coupled);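 note: fluorescence read at Ex 535 nm and Em 587 nm over 30 min, linear phase, inhibition relative to uninhibited control wells, IC50 from log concentration–response curves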
Assay type: biochemical
Settings: 10^−7 M
inhibition at 0.1 µM values, listed per item

smiles.text	readout.units	inhibition at 0.1 µM
NS(=O)(=O)c1ccc(N(Cc2ccccc2)C(=O)CSc2ccccn2)cc1	%	48.6
Cc1ccc(CN(C(=O)CSc2nc3cc(Cl)ccc3s2)c2ccc(S(N)(=O)=O)cc2)cc1	%	60.8
NS(=O)(=O)c1ccc(N(Cc2ccccc2)C(=O)CSc2nc3cc(Cl)ccc3s2)cc1	%	65.2
Cn1nnnc1SCC(=O)N(Cc1ccccc1)c1ccc(S(N)(=O)=O)cc1	%	47.5
Cn1cnnc1SCC(=O)N(Cc1ccccc1)c1ccc(S(N)(=O)=O)cc1	%	45.3

====

Target: hMAO-A (Homo sapiens, UniProt P21397)
Construct: purchased Sigma-Aldrich (Steinheim, Germany)
Sequence (P21397 1-527): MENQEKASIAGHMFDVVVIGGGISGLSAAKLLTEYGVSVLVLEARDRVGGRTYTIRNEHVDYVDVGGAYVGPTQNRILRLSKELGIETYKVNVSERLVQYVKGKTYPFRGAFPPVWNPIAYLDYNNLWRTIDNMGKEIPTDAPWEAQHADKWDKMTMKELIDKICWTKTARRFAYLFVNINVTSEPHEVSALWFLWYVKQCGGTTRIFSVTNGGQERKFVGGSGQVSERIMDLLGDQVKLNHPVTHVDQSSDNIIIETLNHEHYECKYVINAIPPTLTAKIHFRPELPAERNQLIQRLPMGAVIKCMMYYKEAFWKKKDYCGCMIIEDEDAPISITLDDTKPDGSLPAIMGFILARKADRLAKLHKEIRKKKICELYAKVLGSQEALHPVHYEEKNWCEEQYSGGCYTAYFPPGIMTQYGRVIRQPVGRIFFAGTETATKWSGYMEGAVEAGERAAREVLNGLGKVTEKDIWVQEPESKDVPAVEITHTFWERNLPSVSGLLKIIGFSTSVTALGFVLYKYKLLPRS
Assay: MAO-A inhibition assay, fluorometric (Amplex Red / horseradish peroxidase-coupled)
Assay type: biochemical
Details: 10^−3 M; read-out: MAO-A % Inhibition

smiles.text	target.or.system	readout.units	inhibition at 1000 µM
Cc1ccc(CN(C(=O)CSc2nncn2C)c2ccc(S(N)(=O)=O)cc2)cc1	hMAO-A (Homo sapiens, UniProt P21397)	%	42.3
NS(=O)(=O)c1ccc(N(Cc2ccccc2)C(=O)CSc2nc3cc(Cl)ccc3s2)cc1	hMAO-A (Homo sapiens, UniProt P21397)	%	56.3
NS(=O)(=O)c1ccc(N(Cc2ccccc2)C(=O)CSc2ccccn2)cc1	hMAO-A (Homo sapiens, UniProt P21397)	%	46

====

Biological target: hMAO-A (Homo sapiens, UniProt P21397)
Construct: purchased Sigma-Aldrich (Steinheim, Germany)
Experiment: MAO-A inhibition assay, fluorometric (Amplex Red / horseradish peroxidase-coupled)
Type: biochemical
Conditions: 10^−3 M; read-out: MAO-A % Inhibition
metric: inhibition at 1000 µM (%)

smiles.text	target.or.system	number
NS(=O)(=O)c1ccc(N(Cc2ccccc2)C(=O)CSc2nc3ccccc3o2)cc1	hMAO-A (Homo sapiens, UniProt P21397)	47.2
Cc1ccc(CN(C(=O)CSc2ccccn2)c2ccc(S(N)(=O)=O)cc2)cc1	hMAO-A (Homo sapiens, UniProt P21397)	45.2
COc1ccc2sc(SCC(=O)N(Cc3ccc(C)cc3)c3ccc(S(N)(=O)=O)cc3)nc2c1	hMAO-A (Homo sapiens, UniProt P21397)	36.8
COc1ccc2sc(SCC(=O)N(Cc3ccccc3)c3ccc(S(N)(=O)=O)cc3)nc2c1	hMAO-A (Homo sapiens, UniProt P21397)	48.2
Cc1ccc(CN(C(=O)CSc2nc3ccccc3s2)c2ccc(S(N)(=O)=O)cc2)cc1	hMAO-A (Homo sapiens, UniProt P21397)	38.2
Cc1ccc(CN(C(=O)CSc2nc3ccccc3o2)c2ccc(S(N)(=O)=O)cc2)cc1	hMAO-A (Homo sapiens, UniProt P21397)	42.4
Cc1ccc(CN(C(=O)CSc2nc3cc(Cl)ccc3s2)c2ccc(S(N)(=O)=O)cc2)cc1	hMAO-A (Homo sapiens, UniProt P21397)	52.6
Cc1ccc(CN(C(=O)CSc2nnnn2C)c2ccc(S(N)(=O)=O)cc2)cc1	hMAO-A (Homo sapiens, UniProt P21397)	40.2
Cc1ccc(CN(C(=O)CSc2nnnn2-c2ccccc2)c2ccc(S(N)(=O)=O)cc2)cc1	hMAO-A (Homo sapiens, UniProt P21397)	44.2
NS(=O)(=O)c1ccc(N(Cc2ccccc2)C(=O)CSc2nc3ccccc3s2)cc1	hMAO-A (Homo sapiens, UniProt P21397)	39.1
Cn1cnnc1SCC(=O)N(Cc1ccccc1)c1ccc(S(N)(=O)=O)cc1	hMAO-A (Homo sapiens, UniProt P21397)	37.6
Cn1nnnc1SCC(=O)N(Cc1ccccc1)c1ccc(S(N)(=O)=O)cc1	hMAO-A (Homo sapiens, UniProt P21397)	39.2
Cc1ccc(CN(C(=O)CSc2nccn2C)c2ccc(S(N)(=O)=O)cc2)cc1	hMAO-A (Homo sapiens, UniProt P21397)	39.3
NS(=O)(=O)c1ccc(N(Cc2ccccc2)C(=O)CSc2nnnn2-c2ccccc2)cc1	hMAO-A (Homo sapiens, UniProt P21397)	41.5
Cn1ccnc1SCC(=O)N(Cc1ccccc1)c1ccc(S(N)(=O)=O)cc1	hMAO-A (Homo sapiens, UniProt P21397)	35.1
Cc1nnc(SCC(=O)N(Cc2ccccc2)c2ccc(S(N)(=O)=O)cc2)s1	hMAO-A (Homo sapiens, UniProt P21397)	40.6
Cc1ccc(CN(C(=O)CSc2nnc(C)s2)c2ccc(S(N)(=O)=O)cc2)cc1	hMAO-A (Homo sapiens, UniProt P21397)	37.4
